# assay remarks: Kinetic solubility of the compound in pH 8 Tris buffer at 500 uM after 90 by UV-Vis absorbance analysis
# Format: physicochemical
# stated conditions: read-out: Kinetic_solubility
Overview of reported solubility kinetic at 500 µM across a group of compounds:
readout label: solubility kinetic at 500 µM (µg/mL)

> print(dat)
                                    compound  numeric.result
 1  CN1CCC(NC(=O)c2ccncc2Nc2cc(-c3cc(F)c4ccn(C)c4c3)c3nccnc3c2)C1 (stereo unspecified)             185
 2  Cn1ccc2ccc(-c3cc(Nc4ccccc4S(=O)(=O)Nc4cncnc4)cc4nccnc34)cc21             254
 3  CN1CC(NC(=O)c2ccncc2Nc2cc(-c3ccc4ccn(C)c4c3)c3nccnc3c2)CCC1=O (stereo unspecified)             253
 4  CC(=O)N1CC(CNC(=O)c2ccncc2Nc2cc(-c3ccc4ccn(C)c4c3)c3nccnc3c2)C1             252
 5  CN(Cc1cncnc1)S(=O)(=O)c1ccccc1Nc1cc(-c2ccc3ccn(C)c3c2)c2nccnc2c1               3
 6  CN1CCC(NS(=O)(=O)c2ccccc2Nc2cc(-c3ccc4ccn(C)c4c3)c3nccnc3c2)C1 (stereo unspecified)              26
 7  CN1CCC(NC(=O)c2ccncc2Nc2cc(-c3ccc4sc(N)nc4c3)c3nccnc3c2)C1 (stereo unspecified)             241
 8  CN1CCC(NC(=O)c2ccncc2Nc2cc(-c3ccc4ccn(C)c4c3)c3nccnc3c2)CC1             246
 9  Cn1ccc2ccc(-c3cc(Nc4ccccc4S(=O)(=O)NCC4CCOCC4)cc4nccnc34)cc21               2
10  Cn1cc(NC(=O)c2ccncc2Nc2cc(-c3ccc4ccn(C)c4c3)c3nccnc3c2)cn1               2
11  Cn1cc(CNS(=O)(=O)c2ccccc2Nc2cc(-c3ccc4ccn(C)c4c3)c3nccnc3c2)cn1               2
12  CC(=O)N1CCOC(CNC(=O)c2ccncc2Nc2cc(-c3ccc4ccn(C)c4c3)c3nccnc3c2)C1 (stereo unspecified)             268
13  CNC(=O)c1ccncc1Nc1cc(-c2ccc3ccn(C)c3c2)c2nccnc2c1               4
14  CC(=O)N1CCC(NC(=O)c2ccncc2Nc2cc(-c3ccc4ccn(C)c4c3)c3nccnc3c2)CC1             213
15  CN1CC(NC(=O)c2ccncc2Nc2cc(-c3ccc4ccn(C)c4c3)c3nccnc3c2)C1             170
16  Cn1ccc2ccc(-c3cc(Nc4cnccc4C(=O)NCC4COCCN4)cc4nccnc34)cc21 (stereo unspecified)             239
17  CC(=O)N1CC(NC(=O)c2ccncc2Nc2cc(-c3ccc4ccn(C)c4c3)c3nccnc3c2)C1             244
18  Cn1cc(CNC(=O)c2ccncc2Nc2cc(-c3ccc4ccn(C)c4c3)c3nccnc3c2)cn1             127
19  Cn1ccc2ccc(-c3cc(Nc4cnccc4C(N)=O)cc4nccnc34)cc21              40
20  CN1CCCC(NS(=O)(=O)c2ccccc2Nc2cc(-c3ccc4ccn(C)c4c3)c3nccnc3c2)C1 (stereo unspecified)               9
21  CN1CCC(CNS(=O)(=O)c2ccccc2Nc2cc(-c3ccc4ccn(C)c4c3)c3nccnc3c2)C1 (stereo unspecified)              35
22  CN1CCC(NC(=O)c2ccncc2Nc2cc(-c3ccc4ccn(C)c4c3)c3nccnc3c2)CC1=O (stereo unspecified)              48
23  Cn1ccc2ccc(-c3cc(Nc4cnccc4C(=O)NC4CCNC(=O)C4)cc4nccnc34)cc21 (stereo unspecified)             242
24  Cc1csc2ccc(-c3cc(Nc4cnccc4C(=O)N[C@H]4CCN(C)C4)cc4nccnc34)cc12              80
25  CN(C)S(=O)(=O)c1ccccc1Nc1cc(-c2ccc3ccn(C)c3c2)c2nccnc2c1               2
26  Cn1ccc2ccc(-c3cc(Nc4cnccc4C(=O)NCc4cncnc4)cc4nccnc34)cc21             233
27  CC(=O)N1CCC(NC(=O)c2ccncc2Nc2cc(-c3ccc4ccn(C)c4c3)c3nccnc3c2)C1 (stereo unspecified)             253
28  Cn1ccc2ccc(-c3cc(Nc4ccccc4S(N)(=O)=O)cc4nccnc34)cc21               6
29  CC(=O)N1CCCC(NC(=O)c2ccncc2Nc2cc(-c3ccc4ccn(C)c4c3)c3nccnc3c2)C1 (stereo unspecified)             212
30  CN(C)C(=O)c1ccncc1Nc1cc(-c2ccc3ccn(C)c3c2)c2nccnc2c1             175
31  CN1CCC(CNC(=O)c2ccncc2Nc2cc(-c3ccc4ccn(C)c4c3)c3nccnc3c2)C1 (stereo unspecified)             246
